- Test system: platelets
- assay.notes: Manual count of single platelets and platelet aggregates in heparinized blood with anti-platelet drug candidates (Example 1)
- test.context: heparinized venous blood, two concentration levels per drug
Structures can show the parent of a compound that is named as a salt.
quantity: count of single platelets compared to EDTA reference

| molecule | measured.on | observed |
| --- | --- | --- |
| CCCCS(=O)(=O)N[C@@H](Cc1ccc(OCCCCC2CCNCC2)cc1)C(=O)O [Tirofiban, tirofiban hydrochloride monohydrate] | platelets | comparable |
| CC#CCC(C)[C@H](O)/C=C/[C@@H]1[C@H]2C/C(=C/CCCC(=O)O)C[C@H]2C[C@H]1O (stereo partly shown) | platelets | comparable |
